Where these numbers come from: patent US10618903B2

IRAK4 (Homo sapiens (Human)) data, read-out IC50
Sequence (Q9NWZ3 whole entry): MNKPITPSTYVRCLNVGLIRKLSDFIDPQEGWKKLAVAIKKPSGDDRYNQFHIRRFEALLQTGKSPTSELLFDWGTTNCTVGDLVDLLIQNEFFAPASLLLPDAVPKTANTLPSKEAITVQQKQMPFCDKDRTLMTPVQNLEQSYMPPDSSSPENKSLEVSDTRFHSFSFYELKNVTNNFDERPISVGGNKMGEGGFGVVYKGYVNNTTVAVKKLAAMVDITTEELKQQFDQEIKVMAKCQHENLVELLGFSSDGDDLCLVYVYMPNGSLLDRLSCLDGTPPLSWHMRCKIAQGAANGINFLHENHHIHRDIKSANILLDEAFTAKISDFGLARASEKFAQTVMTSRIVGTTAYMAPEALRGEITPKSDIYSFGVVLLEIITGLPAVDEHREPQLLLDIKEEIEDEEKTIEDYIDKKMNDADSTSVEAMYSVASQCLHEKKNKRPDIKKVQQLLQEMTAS
measurement_type: IC50 (nM)

Answered cases to consult:
- CC(C)n1cc(Nc2cc(-c3cnc4cc(C#N)cnn34)ncc2C(=O)NCCC(C)(C)O)cn1 [Example 287]: 9
- CC(C)Nc1cc(-c2cnc3cccnn23)ncc1C(=O)NC[C@@H](F)C(C)(C)O [Example 177]: 10
- CC(C)OC1CC(Nc2cc(-c3cnn4cc(Cl)cnc34)ncc2C(=O)NC[C@@H](F)C(C)(C)O)CC1(F)F (single isomer, unassigned) [Example 16]: 6

I: Cc1cnn2c(-c3cc(NC4CCC4)c(C(=O)NC[C@@H](F)C(C)(C)O)cn3)cnc2c1 [Example 185]
II: CO[C@H]1CC[C@H](NC(=O)c2cnc(-c3cnn4cc(C#N)cnc34)cc2NC2COC2)CC1 [Example 124]
// select label with min value of measured IC50 from [ I , II ] Output the label that corresponds to your choice.
I
(I: 7 nM, II: 12 nM)
